Where do the numbers come from? From ChEMBL document CHEMBL4834464.

Answer each item with its documented chromatographic logD.
Assay: Distribution coefficient, logD of the compound by chromatography
Format: physicochemical
Details: octanol/water
I only need the number, thanks.

Q. GET /values?readout=chromatographic logD&item= CNC(=O)c1cc(C(=O)N[C@H]2[C@@H]3C[C@@H](O)C[C@@H]32)n([C@@H](C)c2ccccc2)n1
A. 3.2

Q. Same lookup for CNC(=O)c1cc(C(=O)N[C@H]2CC[C@H](O)CC2)n([C@@H](C)c2ccccc2)n1 , please.
A. 2.9

Q. Same lookup for CCNC(=O)c1cc(C(=O)NC)nn1[C@@H](C)c1ccccc1 , please.
A. 3.7

Q. Same lookup for CNC(=O)c1cc(C(=O)N[C@H]2[C@@H]3C[C@@H](OC)C[C@@H]32)n([C@@H](C)c2ccccc2)n1 , please.
A. 2.7

Q. Same lookup for CNC(=O)c1cc(C(=O)N[C@H]2CC[C@H](O)CC2)n([C@@H](C)c2ccc(C(F)(F)F)cc2)n1 , please.
A. 3.9
